Kindly state abundance fitness for each of the entries shown.
B1: Proto-oncogene vav, residues 782 to 842; numbered along this chain, P15498 (parent)
chain: KYFGTAKARYDFCARDRSELSLKEGDIIKILNKKGQQGWWRGEIYGRVGWFPANYVEEDYS

variants of: B1; experiment: abundance fitness (aPCA) (normalised: wild type 0, dead -1); higher = more abundant; growth selection in yeast, the domain comes from the species named; conditions: Homo sapiens
Numbers only.

| Mutant designation | Recorded endpoint | Readout value |
| --- | --- | --- |
| K1A | abundance fitness | -0.456 |
| V48T | abundance fitness | 0.071 |

Provide each entry's abundance fitness from the list below.
1. A8Y
2. K7Y
3. Y2F
4. K23S
5. G35A
6. P52Y

-0.708
-0.133
0.061
-0.168
-0.346
-1.01
